The reported measurements were obtained from PubChem BioAssay AID2060488.

# Test system: 966289-007-R4-J1-PDC complex spheroid viability;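 also: spheroids exposed to the agents for seven days before readout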
# Test Description: Anticancer human tumor 966289-007-R4-J1-PDC patient-derived pancreatic adenocarcinoma cell line growth inhibition [GQUAD]; active = viability on the fitted dose curve at most 10% of control; inactive = the rest
# Experimental Parameters: second compound 3.16 µM; first compound 0.316 µM
Classes to choose from: active, inactive

Hi, sorry to bother you, what did the test record for CC(C)(O)C1CCC(Nc2ccc3ncc(-c4cccc(C(F)(F)F)c4)n3n2)CC1 (stereo unspecified) + Cc1[nH]c2ccc(F)cc2c1-c1nc2c3cccnc3c3ncccc3c2[nH]1 ?
inactive

Hi, sorry to bother you, what did the test record for CC(C)n1c(=O)n(C)c2cnc3cc(F)c(-c4ccc(OCCCN5CCCCC5)nc4)cc3c21 + Cc1cnc(CNC(=O)c2c(=O)c3ccc(N4CCCN(C)CC4)nc3n3c2sc2ccccc23)cn1 ?
active

Hi, sorry to bother you, what did the test record for COc1ncnc(C2CC2)c1-c1ncc2cnn(Cc3ccc(-c4nc(C(F)(F)F)cn4C(C)C)cc3)c2n1 + CN(C)c1ccc(Nc2c3ccc(NC(=O)CCN4CCCC4)cc3nc3cc(NC(=O)CCN4CCCC4)ccc23)cc1 ?
inactive

Hi, sorry to bother you, what did the test record for CCc1c2c(nc3ccc(O)cc13)-c1cc3c(c(=O)n1C2)COC(=O)[C@]3(O)CC + CN(C)c1ccc(Nc2c3ccc(NC(=O)CCN4CCCC4)cc3nc3cc(NC(=O)CCN4CCCC4)ccc23)cc1 ?
active

Hi, sorry to bother you, what did the test record for COc1cc(C2c3cc4c(cc3C(OC3OC5COC(C)OC5C(O)C3O)C3COC(=O)C23)OCO4)cc(OC)c1O (stereo unspecified) + CN(C)c1ccc(Nc2c3ccc(NC(=O)CCN4CCCC4)cc3nc3cc(NC(=O)CCN4CCCC4)ccc23)cc1 ?
inactive

Hi, sorry to bother you, what did the test record for COc1ccc([C@@H](O)c2cc(-c3ncnc4cc(N5CCOCC5)ccc34)c(F)cc2Cl)nn1 + CN(C)c1ccc(Nc2c3ccc(NC(=O)CCN4CCCC4)cc3nc3cc(NC(=O)CCN4CCCC4)ccc23)cc1 ?
inactive

Hi, sorry to bother you, what did the test record for Cc1cccc(N(C)C(=O)C2C(O)CCN2c2nc(C)cc(C(F)(F)F)c2C#N)c1 (stereo unspecified) + CN(C)c1ccc(Nc2c3ccc(NC(=O)CCN4CCCC4)cc3nc3cc(NC(=O)CCN4CCCC4)ccc23)cc1 ?
inactive

Hi, sorry to bother you, what did the test record for CCCS(=O)(=O)Nc1ccc(F)c(C(=O)c2c[nH]c3ncc(-c4ccc(Cl)cc4)cc23)c1F + Cc1cnc(CNC(=O)c2c(=O)c3ccc(N4CCCN(C)CC4)nc3n3c2sc2ccccc23)cn1 ?
active

Hi, sorry to bother you, what did the test record for Cc1[nH]c2ccccc2c1CCNCc1ccc(/C=C/C(=O)NO)cc1 + Cc1[nH]c2ccc(F)cc2c1-c1nc2c3cccnc3c3ncccc3c2[nH]1 ?
active

Hi, sorry to bother you, what did the test record for C=CCn1c(=O)c2cnc(Nc3ccc(N4CCN(C)CC4)cc3)nc2n1-c1cccc(C(C)(C)O)n1 + Cc1cnc(CNC(=O)c2c(=O)c3ccc(N4CCCN(C)CC4)nc3n3c2sc2ccccc23)cn1 ?
active

Hi, sorry to bother you, what did the test record for COc1cc(C2c3cc4c(cc3C(OC3OC5COC(C)OC5C(O)C3O)C3COC(=O)C23)OCO4)cc(OC)c1O (stereo unspecified) + Cc1[nH]c2ccc(F)cc2c1-c1nc2c3cccnc3c3ncccc3c2[nH]1 ?
inactive
